- systemTested: UniProtKB Q13191
- Sequence (Q13191 40-426): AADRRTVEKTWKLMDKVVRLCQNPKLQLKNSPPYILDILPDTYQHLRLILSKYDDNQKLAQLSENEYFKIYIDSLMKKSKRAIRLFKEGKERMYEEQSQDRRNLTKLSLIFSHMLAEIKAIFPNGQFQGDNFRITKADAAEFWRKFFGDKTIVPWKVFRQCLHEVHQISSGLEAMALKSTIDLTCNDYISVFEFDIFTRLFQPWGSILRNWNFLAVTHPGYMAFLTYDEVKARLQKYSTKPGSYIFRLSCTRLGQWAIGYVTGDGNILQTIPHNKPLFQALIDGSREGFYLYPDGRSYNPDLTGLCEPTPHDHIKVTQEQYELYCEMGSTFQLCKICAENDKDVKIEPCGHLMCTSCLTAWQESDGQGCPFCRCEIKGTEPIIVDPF
- measurementProtocol: Cbl-b LCK Ub TR-FRET assay (Cbl-b Lck HTRF)
- Assay type: biochemical
- conditionDetails: ratio C-cbl Lck HTRF IC50 / Cbl-b Lck HTRF IC50
Recorded (fold-selectivity) Cbl-b and C-Cbl Selectivity for the following compounds
valueType: (fold-selectivity) Cbl-b and C-Cbl Selectivity (x)

[
  {
    "compound": "Cn1cnnc1[C@]1(c2cccc(N3Cc4c(Cl)cc(CNC5(C)CCC5)cc4C3=O)c2)C[C@@H](Cl)C1",
    "testResult": 1.6
  },
  {
    "compound": "Cn1cnnc1[C@@H](c1cccc(N2Cc3c(cc(CNC4(C)CCC4)cc3C(F)F)C2=O)c1)C1CC(F)C1 (single isomer, unassigned) [Compound 459]",
    "testResult": 1.1
  },
  {
    "compound": "CO[C@H]1C[C@](c2cccc(N3Cc4c(cc(CNCC5(CF)CCC5)cc4C(F)(F)F)C3=O)c2)(c2nncn2C)C1",
    "testResult": 4.5
  }
]
